Provide the recorded MIC for the entries that follow.
System: Escherichia coli
ASSAY_TEXT: Antibacterial activity against Escherichia coli DC0 by broth microdilution method
Type: functional
One number for each entry, in µM.

COMPOUND	MIC (µM)
CC1=C(Br)C(=O)C(C(C)(C)CC(=O)N2CCN(c3cc4c(cc3F)c(=O)c(C(=O)O)cn4C3CC3)CC2)=C(C)C1=O	12.5

Please give MIC, item by item, for the list that follows.
1. CC1=C(N)C(=O)C(C(C)(C)CC(=O)N2CCN(c3cc4c(cc3F)c(=O)c(C(=O)O)cn4C3CC3)CC2)=C(C)C1=O
2. O=C(O)c1cn(C2CC2)c2cc(N3CCNCC3)c(F)cc2c1=O [CIPROFLOXACIN]

Output:
[25, 0.47]

Task: // fetch Escherichia coli MIC for CC1=CC(=O)C(C(C)(C)CC(=O)N2CCN(c3cc4c(cc3F)c(=O)c(C(=O)O)cn4C3CC3)CC2)=C(C)C1=O
Output: 12.5

* * *

Test system: Staphylococcus aureus
ASSAY_TEXT: Antibacterial activity against Staphylococcus aureus SG511 at 0.1 mM incubated for 24 hrs at 37 degC by agar diffusion assay
Assay type: functional
PARTICULARS: SG511, 24 h, read-out: DIZ
OBSERVED_PROPERTY: zone of inhibition at 100 µM (mm)
Answers are plain numbers, in mm.

CC1=C(N)C(=O)C(C(C)(C)CC(=O)O)=C(C)C1=O 0
CC1=CC(=O)C(C(C)(C)CC(=O)O)=C(C)C1=O 0
CC1=C(Br)C(=O)C(C(C)(C)CC(=O)N2CCN(c3cc4c(cc3F)c(=O)c(C(=O)O)cn4C3CC3)CC2)=C(C)C1=O 25
CC1=C(N)C(=O)C(C(C)(C)CC(=O)N2CCN(c3cc4c(cc3F)c(=O)c(C(=O)O)cn4C3CC3)CC2)=C(C)C1=O 31

Task: Any idea what zone of inhibition at 100 µM was measured for CC1=CC(=O)C(C(C)(C)CC(=O)N2CCN(c3cc4c(cc3F)c(=O)c(C(=O)O)cn4C3CC3)CC2)=C(C)C1=O ?
Output: 33

* * *

Tested on: Escherichia coli
ASSAY_TEXT: Antibacterial activity against Escherichia coli DC2 at 0.1 mM incubated for 24 hrs at 37 degC by agar diffusion assay
Format: functional
PARTICULARS: DC2, 24 h, read-out: DIZ
Field: zone of inhibition at 100 µM. Provide a value for each of the molecules that follow.
Answers are plain numbers, in mm.

# annotated cases, reported zone of inhibition at 100 µM shown
CC1=C(N)C(=O)C(C(C)(C)CC(=O)N2CCN(c3cc4c(cc3F)c(=O)c(C(=O)O)cn4C3CC3)CC2)=C(C)C1=O 23
CC1=C(Br)C(=O)C(C(C)(C)CC(=O)N2CCN(c3cc4c(cc3F)c(=O)c(C(=O)O)cn4C3CC3)CC2)=C(C)C1=O 24
CC1=CC(=O)C(C(C)(C)CC(=O)N2CCN(c3cc4c(cc3F)c(=O)c(C(=O)O)cn4C3CC3)CC2)=C(C)C1=O 27

Fill in zone of inhibition at 100 µM for each of the 2 molecules listed.
1. CC1=CC(=O)C(C(C)(C)CC(=O)O)=C(C)C1=O
2. CC1=C(N)C(=O)C(C(C)(C)CC(=O)O)=C(C)C1=O

Output:
1. 0
2. 0
